Reference source: the supplement of paper PMC4022240

# Target under test: T1, HaloTag-ATRX ADD domain (163-292)
# T1 chain: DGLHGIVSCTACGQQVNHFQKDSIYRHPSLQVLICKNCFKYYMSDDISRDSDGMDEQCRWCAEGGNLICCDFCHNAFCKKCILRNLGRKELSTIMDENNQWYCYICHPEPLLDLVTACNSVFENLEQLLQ
# Measurement description: peptide microarray binding signal (635 nm), min-max normalized on array (fraction of array maximum); higher = stronger binding
# Experimental parameters: peptide region: Unmod H1 variant; binder concentration: 50 nM
Measure: peptide microarray binding signal
Lab note: jot down the number only; don't add units.

Can you look up the measured peptide microarray binding signal of YDVEKNNSRIKLG [Unmod H1 variant Y D V E K N N S R I K L G] for me?
0.0163

Can you look up the measured peptide microarray binding signal of KKAKKPKTVKAKP [Unmod H1 variant K K A K K P K T V K A K P] for me?
0.0134

Can you look up the measured peptide microarray binding signal of AKKKLAATPKKAK [Unmod H1 variant A K K K L A A T P K K A K] for me?
0.0119

Can you look up the measured peptide microarray binding signal of SKGTLVQTKGTGA [Unmod H1 variant S K G T L V Q T K G T G A] for me?
0.0193

Can you look up the measured peptide microarray binding signal of SETVPPAPAASAA [Unmod H1 variant S E T V P P A P A A S A A] for me?
0.0132

Can you look up the measured peptide microarray binding signal of LKKALAAAGYDVE [Unmod H1 variant L K K A L A A A G Y D V E] for me?
0.0162

Can you look up the measured peptide microarray binding signal of KKLKKATGASKKS [Unmod H1 variant K K L K K A T G A S K K S] for me?
0.0152

Can you look up the measured peptide microarray binding signal of EKNNSRIKLGLKS [Unmod H1 variant E K N N S R I K L G L K S] for me?
0.0196
